Endpoint: IC50. System: WEE1 kinase (Homo sapiens, UniProt P30291). Items follow.
Sequence (P30291 whole entry): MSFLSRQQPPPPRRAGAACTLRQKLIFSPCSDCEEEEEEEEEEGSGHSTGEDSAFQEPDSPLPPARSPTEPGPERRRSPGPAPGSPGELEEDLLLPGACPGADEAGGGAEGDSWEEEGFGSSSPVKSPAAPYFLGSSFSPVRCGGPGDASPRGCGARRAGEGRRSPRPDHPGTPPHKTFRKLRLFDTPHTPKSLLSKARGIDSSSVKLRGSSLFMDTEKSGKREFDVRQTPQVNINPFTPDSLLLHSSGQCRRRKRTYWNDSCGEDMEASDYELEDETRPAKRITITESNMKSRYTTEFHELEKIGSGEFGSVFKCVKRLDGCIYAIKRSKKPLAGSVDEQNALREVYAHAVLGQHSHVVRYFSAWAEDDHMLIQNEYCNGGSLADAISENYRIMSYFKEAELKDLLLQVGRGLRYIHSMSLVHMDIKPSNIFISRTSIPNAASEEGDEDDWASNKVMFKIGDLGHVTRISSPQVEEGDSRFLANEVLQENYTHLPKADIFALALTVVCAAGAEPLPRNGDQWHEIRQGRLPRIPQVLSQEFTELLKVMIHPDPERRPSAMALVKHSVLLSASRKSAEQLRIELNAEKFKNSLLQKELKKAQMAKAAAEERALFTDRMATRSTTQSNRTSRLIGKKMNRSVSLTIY
Express the result in µM but write the number alone.

Look over these answered cases.
compound="CCN1CCN(Cc2ccc(-c3cc4c(N[C@H](C)c5ccccc5)ncnc4[nH]3)cc2)CC1 [Compound 2, AEE788]" system_tested="WEE1 kinase (Homo sapiens, UniProt P30291)" experimental_readout=IC50 quantitative_result=0.103
compound="CNC(=O)c1nn(C)c2c1C(C)(C)Cc1cnc(Nc3ccc(N4CCN(C)CC4)cc3)nc1-2 [Compound 5, Milciclib]" system_tested="WEE1 kinase (Homo sapiens, UniProt P30291)" experimental_readout=IC50 quantitative_result=0.00377

Enquiry: I'm curious: which IC50 was measured for CCN1CCN(C(=O)Cc2ccc(Nc3ncc(F)c(Nc4ccc(C(=O)Nc5ccccc5Cl)cc4)n3)cc2)CC1 [Compound 8, TCS7010] tested on WEE1 kinase (Homo sapiens, UniProt P30291)?
Return: 0.797
